Cited source: the supplement of paper PMC9663587

tested on: HS578T; assay: area over the GR curve, 72 h; higher = more effect;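 note: Dye Drop or Deep Dye Drop imaging of viable cells in 384-well plates (Hoechst nuclei, LIVE/DEAD dye), nine half-log doses, GR normalized to DMSO controls and time-zero plates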
# area over the GR curve annotations
Quick reminder: number only, in GR, skip the unit.

# Molecule, Experimental value
records = [
    ("CCN1CCN(Cc2ccc(Nc3ncc(F)c(-c4cc(F)c5nc(C)n(C(C)C)c5c4)n3)nc2)CC1 (max 10 µM)", 0.634),
]

[ask] Would you kindly share the measured area over the GR curve for CCOc1cc2ncc(C#N)c(Nc3ccc(OCc4ccccn4)c(Cl)c3)c2cc1NC(=O)/C=C/CN(C)C [Neratinib/HKI272] (max 3.162 µM) ?
[reply] 0.202

[ask] Input CS(=O)(=O)N1CCN(Cc2cc3nc(-c4cccc5[nH]ncc45)nc(N4CCOCC4)c3s2)CC1 [Pictilisib/GDC0941] (max 10 µM)
[reply] 0.311

[ask] Subsequent entry: CN(C)CC[C@H](CSc1ccccc1)Nc1ccc(S(=O)(=O)NC(=O)c2ccc(N3CCN(Cc4ccccc4-c4ccc(Cl)cc4)CC3)cc2)cc1[N+](=O)[O-] [ABT-737] (max 10 µM)
[reply] 0.026
